Data provenance: PubChem BioAssay AID1159580

test: chemical genetic growth profiling, strain panel (AID 1159580);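 further: tested at 20 µM; growth read once vehicle control cultures reached saturation at 30 °C; 1 = growth at the plate median or of vehicle wells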; conditions: S. cerevisiae deletion strains, growth OD, locus YMR125W, strain sto1
Out of some 5,500 compounds screened, about 2,000 (36%) were called active. Not shown: some 18% with an inconclusive outcome. No stated cut-off is given here; in the data, active means normalized growth mostly below about 0.91 (no sharp cut-off); inconclusive means no clear call, values can overlap the other calls; inactive means mostly above about 0.92. This is one part of the list.
API: response.call in yes for active, no for inactive

Study these solved cases before continuing.
{"compound": "O=C(CNC(=O)c1ccc(Cl)cc1)NO", "className": "no"}
{"compound": "C#C[C@]1(O)CCC2C3CCC4=CC(=O)CC[C@@H]4C3CC[C@@]21CC (some centres undefined)", "className": "no"}
{"compound": "Cc1cc(O)ccc1Cl", "className": "yes"}
{"compound": "COc1cc(C(=O)O[C@H]2CC[C@@]3(C)[C@@H]4CC[C@H]5[C@]6(O)C[C@H](O)[C@@]7(O)[C@@H](CN8C[C@@H](C)CC[C@H]8[C@@]7(C)O)[C@]6(O)C[C@@]53O[C@]24O)cc(OC)c1OC", "className": "no"}
{"compound": "COC(=O)C[C@H]1C(C)(C)C(=O)[C@@H]2CC3C4=CC(=O)O[C@@H](c5ccoc5)[C@]4(C)CCC3[C@@]1(C)C2=O (some centres undefined)", "className": "no"}
{"compound": "CC1(C)CC[C@]2(C)CC[C@]3(C)C(=CCC4[C@@]5(C)CC[C@H](O)C(C)(C)C5CC[C@]43C)C2C1 (some centres undefined)", "className": "no"}
{"compound": "CC1=NS(=O)(=O)c2cc(Cl)ccc2N1", "className": "no"}
{"compound": "COc1ccc2c(c1)c(CC(=O)OCC(=O)O)c(C)n2C(=O)c1ccc(Cl)cc1", "className": "no"}

Now look at this entry.
Assay result, entry Cc1ccc(-c2cc(C(F)(F)F)nn2-c2ccc(S(N)(=O)=O)cc2)cc1 — outcome? no

====

Items are presented alongside their recorded normalized growth.
assay: chemical genetic growth profiling, strain panel (AID 1159580); conditions: S. cerevisiae deletion strains, growth OD, locus YDL101C, strain DUN1, active compounds read low
The whole screen tested about 5,500 compounds, of which about 2,000 (36%) were called active. Inconclusive results (about 18%) are left out. The list shows a part of the results.
No unit in the answer, only the number.

{"compound": "NC(N)=N/N=C/c1c(Cl)cccc1Cl", "observationType": "normalized growth", "val": 1.01}
{"compound": "Cc1nc(-c2ccccn2)nc(SCc2ccccc2)c1Cl", "observationType": "normalized growth", "val": 0.942}
{"compound": "N#C/C(NCc1cccs1)=C(\\C#N)NCc1c(F)cccc1Cl", "observationType": "normalized growth", "val": 0.979}
{"compound": "Cc1cc(O)cc(=O)o1", "observationType": "normalized growth", "val": 0.988}
{"compound": "Cc1cn([C@H]2C[C@H](N=[N+]=[N-])[C@@H](CO)O2)c(=O)[nH]c1=O", "observationType": "normalized growth", "val": 1.01}
{"compound": "Cc1nc(-c2ccccn2)nc(N(C)Cc2ccccc2)c1Cl", "observationType": "normalized growth", "val": 0.962}
{"compound": "N#CC(O[C@@H]1O[C@H](CO[C@@H]2O[C@H](CO)[C@@H](O)[C@H](O)[C@H]2O)[C@@H](O)[C@H](O)[C@H]1O)c1ccccc1 (stereo not given in full)", "observationType": "normalized growth", "val": 1}
{"compound": "CCCCCCCCCCCC[C@H](C(=O)O)[C@@H](C)C(=O)O", "observationType": "normalized growth", "val": 1.02}

What does the record list as normalized growth for CCOP(=S)(OCC)Oc1nc(Cl)c(Cl)cc1Cl ? 1.01

Try CC(=O)NCc1c(I)c(NC(C)=O)c(I)c(C(=O)O)c1I next. 0.991

Try O=C(CSCc1c(F)cccc1Cl)NC1Cc2ccccc2C1 next. 0.995

Try O=C(CSCc1csc2ccccc12)Nc1ccc(F)c(Cl)c1 next. 0.999

Try Cc1cccc(NC(=S)NCc2ccncc2)c1 next. 0.988

====

experiment: chemical genetic growth profiling, strain panel (AID 1159580); settings: S. cerevisiae deletion strains, growth OD, locus YLL041C, strain sdh2
About 2,000 (36%) of roughly 5,500 compounds were called active. Inconclusive results (about 18%) are left out. Rule as the data show it: active = normalized growth mostly below about 0.91 (no sharp cut-off); inconclusive = no clear call, values can overlap the other calls; inactive = mostly above about 0.92. This is one part of the list.
API: response.call in active, inactive

Study these solved cases before continuing.
{"molecule": "COc1cccc2c1C(=O)c1c(O)c3c(c(O)c1C2=O)C[C@@](O)(C(C)=O)C[C@@H]3O[C@H]1C[C@H](N)[C@H](O)[C@H](C)O1", "className": "inactive"}
{"molecule": "Cc1cc(O)cc(=O)o1", "className": "inactive"}
{"molecule": "CC1(C)CC(O)C2(C)CCC3(C)C(=CCC4C5(C)CCC(O)C(C)(CO)C5CCC43C)C2C1 (centres undefined)", "className": "inactive"}

Assay result, entry Cc1cc(O)cc(O)c1C(=O)O — outcome? inactive

Try CNC(=O)O/N=C\C(C)(C)SC next. inactive

Try COc1cc(C(=O)NCCCCCC(=O)O)cc(OC)c1OC next. inactive

Try O=C(Nc1ccc(C(=O)O)c(O)c1)c1ccccc1 next. inactive

Try Nc1c2ccccc2nc2ccccc12 (tested in a mixture with another compound) next. active

Try COc1cccc2c1C(=O)c1c(O)c3c(c(O)c1C2=O)C[C@@](O)(C(=O)CO)C[C@@H]3OC1C[C@H](N)[C@H](O)[C@H](C)O1 (some centres undefined) next. active

====

assay: chemical genetic growth profiling, strain panel (AID 1159580);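 further: tested at 20 µM; growth read once vehicle control cultures reached saturation at 30 °C; 1 = growth at the plate median or of vehicle wells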; details: S. cerevisiae deletion strains, growth OD, locus YLR342W, strain FKS1 (second series)
Screen size: about 5,500 compounds; about 2,000 (36%) were called active. About 18% were inconclusive and are not listed. Rule as the data show it: active = normalized growth mostly below about 0.91 (no sharp cut-off); inconclusive = no clear call, values can overlap the other calls; inactive = mostly above about 0.92. The list shows a part of the results.
API: response.call in active, inactive

{"molecule": "CC(=O)NCc1c(I)c(NC(C)=O)c(I)c(C(=O)O)c1I", "className": "inactive"}
{"molecule": "O=C(O)/C=C1\\CCCc2ccccc2C1O (stereo not given)", "className": "inactive"}
{"molecule": "CCCCCCCCCCCC[C@H](C(=O)O)[C@@H](C)C(=O)O", "className": "inactive"}
{"molecule": "CC(C)=CCCC1(C)C=Cc2c(O)c3c(c(CC=C(C)C)c2O1)OC12C(CC4CC1C(C)(C)OC2(C/C=C(/C)C(=O)O)C4O)C3=O (stereo not given)", "className": "inactive"}
{"molecule": "O=C1C(O)=C(O)C(=O)C(O)=C1O", "className": "inactive"}

Assay result, entry COC1=C[C@@H]2[C@@H]3Cc4ccc(OC)c(O)c4[C@]2(CCN3C)CC1=O — outcome? inactive

====

assay: chemical genetic growth profiling, strain panel (AID 1159580);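 further: tested at 20 µM; growth read once vehicle control cultures reached saturation at 30 °C; 1 = growth at the plate median or of vehicle wells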; conditions: S. cerevisiae deletion strains, growth OD, locus YPR167C, strain met16, active compounds read low
Screen size: about 5,500 compounds; about 2,000 (36%) were called active. Inconclusive results (about 18%) are left out. The list shows a part of the results.
Items are presented alongside their recorded normalized growth.
No unit in the answer, only the number.

{"compound": "CCCOc1ccccc1-c1nc2n[nH]nc2c(=O)[nH]1", "val": 1.02}
{"compound": "COC(=O)Nc1nc2ccc(Sc3ccccc3)cc2[nH]1", "val": 1}
{"compound": "CC1(C)CC[C@]2(C)CC[C@]3(C)C(=CCC4[C@@]5(C)CC[C@H](O)C(C)(C)C5CC[C@]43C)C2C1 (some centres undefined)", "val": 0.982}

What does the record list as normalized growth for O=C(O)/C=C1\CCCc2ccccc2C1O (centres undefined) ? 0.987

====

experiment: chemical genetic growth profiling, strain panel (AID 1159580);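 further: tested at 20 µM; growth read once vehicle control cultures reached saturation at 30 °C; 1 = growth at the plate median or of vehicle wells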; settings: S. cerevisiae deletion strains, growth OD, locus YLR268W, strain sec22, active compounds read low
The whole screen tested about 5,500 compounds, of which about 2,000 (36%) were called active. Roughly 18% stayed inconclusive and do not appear here. The list shows a part of the results.
Response field label takes 1 (yes) when normalized growth is strictly below 1 and 0 (no) in all other cases.

Study these solved cases before continuing.
{"compound": "C#C[C@]1(OC(C)=O)CCC2C3CCC4=CC(=O)CC[C@@H]4C3CC[C@@]21C (stereo partly specified)", "className": "1 (yes)"}
{"compound": "N[C@H](C(=O)O)[C@@H]1CC(Cl)=NO1", "className": "1 (yes)"}
{"compound": "CC1=CCC2C3(C)C1=CC(=O)OC3CC1C(C)(C)CC(O)C(O)C12C (stereo unspecified)", "className": "0 (no)"}

Now look at this entry.
Consider the compound CC(C)(Sc1cc(C(C)(C)C)c(O)c(C(C)(C)C)c1)Sc1cc(C(C)(C)C)c(O)c(C(C)(C)C)c1 . Is its normalized growth strictly less than 1? 0 (no)
